- System: SK-MEL-2 melanoma
- assay.procedure: NCI-60 one-dose screen, 48 h
- condition.set: 10 µM unless noted
- Method: Growth inhibition of the SK-MEL-2 human tumor cell line is measured as a screen for anti-cancer activity. Cells are grown in 96 well plates and exposed to the test compound for 48 hours. Compounds are tested at a single concentration, which is 10^-5 M for most compounds. The reported endpoint is percent growth (GI% or GIPRCNT), where numbers from 0 - 100% represent growth inhibition, and numbers from -100% - 0 represent cell death. For example, a value of 40 represents 60% growth inhibition. […]
About 83,000 compounds went through this panel and 20% of them were active in at least one assay; those are over-represented in the sample as a whole. The source made the active and inactive calls. Rule for the calls: active = growth percent below 10; inactive = the rest.
Classes used: active, inactive

[[record]]
molecule = "COc1cccc(CCC2CCCN(c3cc(C)nc(N)n3)C2)c1 (stereo not given)"
class_name = "inactive"

[[record]]
molecule = "Cc1c(C(N)=O)sc2nc(C)n(/N=c3\\scc(-c4ccccc4)n3Cc3ccccc3)c(=O)c12"
class_name = "inactive"

[[record]]
molecule = "CN(CCCCCCCCNc1ccnc2ccccc12)Cc1ccc(-c2ccc(-c3ccc(C#N)cc3)s2)cc1"
class_name = "active"

[[record]]
molecule = "CN(C)CCOC(=O)Nc1ccc(Cl)cc1"
class_name = "inactive"

[[record]]
molecule = "COC(=O)c1ccc(CSc2nnc(-c3ccncc3)o2)cc1"
class_name = "inactive"


----------
- System: MCF7 breast
- assay.procedure: NCI-60 one-dose screen, 48 h (100 = growth as untreated, 0 = no growth, -100 = all killed)
- condition.set: 10 µM unless noted
About 83,000 compounds went through this panel and 20% of them were active in at least one assay; those are over-represented in the sample as a whole.
true (1) if growth is below 90%. false (0) if not; exact matches included in false (0).

[[record]]
compound = "CCOC(=O)c1ccc(-c2ccc3cc(OC)ccc3c2)nc1C"
class_name = "false (0)"

[[record]]
compound = "COc1ccc(/C=C2\\COc3ccc(O)cc3C2=O)cc1OC"
class_name = "true (1)"

[[record]]
compound = "COC1=CC(c2ccc[nH]2)=N/C1=C\\c1[nH]c(C)c(C(=O)OCCn2cc(CCC[C@@H]3Cc4cc(O)ccc4C4CC[C@]5(C)[C@@H](O)CC[C@H]5C43)nn2)c1C (some centres undefined)"
class_name = "false (0)"

[[record]]
compound = "O=C(/C=C/C12c3ccccc3C(c3ccccc31)C1C(=O)N(c3ccccc3)C(=O)C12)c1ccccc1 (centres undefined)"
class_name = "true (1)"

[[record]]
compound = "Cc1cn(C2CCCCC2)c(=O)[nH]c1=O"
class_name = "false (0)"

[[record]]
compound = "Cc1cc(Cc2cc(C)cc(C(C)(C)C)c2O)c(O)c(C(C)(C)C)c1"
class_name = "true (1)"

[[record]]
compound = "CCNCCNc1cc(-c2ccc(C(=O)OC)cc2)c(C#N)c2nc3ccccc3n12"
class_name = "true (1)"

[[record]]
compound = "O=C(Oc1ccc[nH]c1=O)c1cc([N+](=O)[O-])cc([N+](=O)[O-])c1"
class_name = "false (0)"


----------
- Test system: DU-145 prostate
- assay.procedure: NCI-60 one-dose screen, 48 h
- condition.set: 10 µM unless noted
This is part of a sample that, as a whole, favours compounds with a hit. Of some 83,000 tested, about 20% had one in any assay. The source made the active and inactive calls. How the source made its calls: active means growth percent below 10; inactive means the rest.
Classes used: yes = active, no = inactive

[[record]]
compound = "CCCCCCCCn1cc(C2=C(c3coc4ccc(OC)cc34)C(=O)NC2=O)c2ccccc21"
class_name = "no"

[[record]]
compound = "COc1cc(/C=C2\\C=C(c3ccccc3)N(CCc3ccccc3)C2=O)cc(OC)c1OC"
class_name = "no"

[[record]]
compound = "COc1cc(/C=C/C(=O)c2ccc(Nc3nc(Nc4ccccc4)nc(Nc4ccc(Cl)cc4)n3)cc2)cc(OC)c1OC"
class_name = "no"

[[record]]
compound = "CC1(C)N=C(N)N=C(N)N1c1ccc(Cl)c(Cl)c1"
class_name = "no"

[[record]]
compound = "O=C1NN(C(=O)c2ccc(O)cc2)C(c2ccccc2)=N/C1=C\\c1cn(-c2ccccc2)nc1-c1ccccc1"
class_name = "no"

[[record]]
compound = "COc1ccc(Cn2cnc3cc(C(=O)Nc4cccc5ccccc45)ccc32)c(OC)c1"
class_name = "yes"

[[record]]
compound = "COc1cc(-c2ccc(-c3ccc(C(=N)N)nc3)s2)cc(OC)c1OC"
class_name = "no"

[[record]]
compound = "Nc1ccc(CCCCc2ccccc2)c(Cl)c1"
class_name = "no"

[[record]]
compound = "Clc1ccc(/C=N\\N=c2\\scc(-c3ccc(Cl)cc3)n2/N=C/c2ccc(Cl)cc2)cc1"
class_name = "no"

[[record]]
compound = "CCNCCNc1cc(-c2ccc(C#N)cc2)c(C#N)c2nc3ccccc3n12"
class_name = "no"

[[record]]
compound = "O=C(c1ccccc1)c1ccc(Cl)c([N+](=O)[O-])c1"
class_name = "no"

[[record]]
compound = "COc1ccc(N(C)c2nc(Cl)nc3cnn(C)c23)cc1"
class_name = "yes"

[[record]]
compound = "COc1ccc(-c2cc(-c3ccc(Nc4nc(Nc5ccccc5)nc(Nc5ccc(Cl)cc5)n4)cc3)nc(N)n2)cc1"
class_name = "no"

[[record]]
compound = "COc1cc(C2CC(c3ccc(Nc4nc(Nc5ccc(F)cc5)nc(Nc5ccc(Cl)cc5)n4)cc3)=NN2C(C)=O)cc(OC)c1OC (stereo unspecified)"
class_name = "no"

[[record]]
compound = "CC(C)(C)N1CC(OC(N)=O)C1"
class_name = "no"

[[record]]
compound = "COc1cc(-c2cccc([N+](=O)[O-])c2)c(-c2nc(-c3ccccc3)c(-c3ccccc3)n2C2CC2)cc1OC"
class_name = "no"

[[record]]
compound = "O=C(c1ccccc1)c1ccc(N2C(=O)C3C4c5ccccc5C(/C=C/C(=O)c5ccccn5)(c5ccccc54)C3C2=O)cc1 (stereo unspecified)"
class_name = "no"

[[record]]
compound = "Clc1cnc(Nc2ccc(OCCN3CCCC3)cc2)nc1NCc1ccco1"
class_name = "no"

[[record]]
compound = "N#Cc1c(NC(=O)c2ccc(Br)cc2)sc2c1CCCC2"
class_name = "no"

[[record]]
compound = "O=C(/C=C/c1ccccc1)c1ccc2ccccc2c1"
class_name = "no"

[[record]]
compound = "COc1ccc(-c2cc(-c3ccc(Nc4nc(Nc5ccccc5)nc(Nc5ccc(Cl)cc5)n4)cc3)nc(N)c2C#N)cc1"
class_name = "no"

[[record]]
compound = "Fc1ccc(Nc2ccc3cc(OCCCN4CCOCC4)ccc3n2)cc1F"
class_name = "no"

[[record]]
compound = "CC12CC(C#N)CCC1O2 (stereo unspecified)"
class_name = "no"

[[record]]
compound = "COc1ccc(OC)c(Nc2nc3nonc3nc2Nc2cccc(Br)c2)c1"
class_name = "no"

[[record]]
compound = "Cc1cc(NS(=O)(=O)c2ccccc2)c(OS(=O)(=O)c2ccccc2)cc1C"
class_name = "no"

[[record]]
compound = "Fc1ccc(Nc2nc(Nc3ccc(-c4nc5ccccc5[nH]4)cc3)c3cn[nH]c3n2)cc1"
class_name = "no"

[[record]]
compound = "CCCCCCCCc1cc[n+](CC(=O)c2ccc(Br)cc2)cc1"
class_name = "no"

[[record]]
compound = "O=C1CSC(c2ccc(O)cc2)N1c1nnc(Cn2cnnc2)o1 (stereo unspecified)"
class_name = "no"

[[record]]
compound = "COc1cccc(-c2cnco2)c1OCc1c(C)c(COc2c(OC)cccc2-c2cnco2)c(C)c(COc2c(OC)cccc2-c2cnco2)c1C"
class_name = "no"

[[record]]
compound = "CCOC(=O)c1c2c(c(C)n1C)-c1nn(Cc3ccc(OC)cc3)cc1CC2"
class_name = "no"

[[record]]
compound = "CN(C)CCCCNc1ccc(NCCCCN(C)C)c2c1C(=O)c1c(O)ccc(O)c1C2=O"
class_name = "no"


----------
- Tested on: T-47D breast
- assay.procedure: NCI-60 one-dose screen, 48 h (100 = growth as untreated, 0 = no growth, -100 = all killed)
- condition.set: 10 µM unless noted
Compounds without any hit were thinned out: in the full panel of roughly 83,000, 20% have a hit.
# growth per entry
reported.endpoint: growth (%)

[[record]]
compound = "N=C(N)c1ccc(-c2ccc(-c3ccc(Cl)cc3Cl)o2)nc1"
reported_measurement = 59.2

[[record]]
compound = "CN(C)c1ccc(/C=C/c2c(F)cccc2F)cc1"
reported_measurement = 58.3

[[record]]
compound = "Cn1ncc2c(Nc3ccc(Br)cc3)nc(Nc3ccc(Br)cc3)nc21"
reported_measurement = 29.1

[[record]]
compound = "Cc1cccc(-c2cc(O)c(C(=O)N3CCOCC3)s2)c1"
reported_measurement = 18.9

[[record]]
compound = "CCN(CC)CC(O)CNc1c2ccc(Cl)cc2nc2ccc(OC)cc12 (stereo not drawn)"
reported_measurement = 49.7

[[record]]
compound = "COC(=O)CNC(=O)C(=O)c1c(O)c(O)c(C(C)C)c2cc(C)c(-c3c(C)cc4c(C(C)C)c(O)c(O)c(C(=O)C(=O)NCC(=O)OC)c4c3O)c(O)c12"
reported_measurement = 16

[[record]]
compound = "O=C1C=CC(=Nc2cc(Br)c(O)c(Br)c2)C=C1"
reported_measurement = 70.7

[[record]]
compound = "COc1cc(/C=C2\\C=C(c3ccccc3)N(CCc3ccccc3)C2=O)cc(OC)c1OC"
reported_measurement = 56.9

